The values you see were collected from paper PMC6792352.

experiment: in vitro; settings: rat, gh3-tre-luc cells, AC50 (uM) modified / 1000, Tox21_110001=Tox21_200910; viability, 1 nM T3 present, 24 h
quantityKind: CC50 at 24 h (µM)

1. Oc1c(Cl)c(Cl)cc(Cl)c1Cl [2,3,5,6-Tetrachlorophenol]    65.8

###

experiment: in vitro; details: rat, gh3-tre-luc cells, AC50 (uM) modified / 1000, Tox21_110001=Tox21_200074; viability, 1 nM T3 present, 24 h
quantityKind: CC50 at 24 h

1) ClC(Cl)C(Cl)Cl [1,1,2,2-Tetrachloroethane]    > 90 µM

###

system: GH3-TRE-Luc cell line; details: read-out: AC50 (uM) modified / 1000; Tox21_110001=Tox21_300930; viability, 1 nM T3 present, 24 h
quantityKind: CC50 (µM)

1. Cc1ccc(/N=C/N(C)/C=N/c2ccc(C)cc2C)c(C)c1    62.8

###

assay: in vitro; settings: rat, gh3-tre-luc cells, AC50 (uM) modified / 1000, Tox21_110001=Tox21_302059; viability, 1 nM T3 present, 24 h
quantityKind: CC50 at 24 h

1. BrCCCCCCBr    > 90 µM

###

assay: in vitro; settings: rat, gh3-tre-luc cells, AC50 (uM) modified / 1000, Tox21_110001=Tox21_111257; viability, 1 nM T3 present, 24 h
quantityKind: CC50 at 24 h

1. CNC(=O)OCC[N+](C)(C)C [Methylcarbamylcholine chloride]    > 50 µM

###

target: human TRβ ligand-binding domain (Homo sapiens); assay: TRb-coa LanthaScreen TR-FRET coactivator (SRC-2 peptide) recruitment, agonist (TOX21_TRB_COA_Agonist_Followup_ratio, aeid 2244); assay type: biochemical; set-up: host or cells: GeneBLAzer UAS-bla HEK 293T; settings: cell-free coactivator recruitment; read-out: TRb-coa-Ag AC50
Sequence (P10828 217-461 limits assumed): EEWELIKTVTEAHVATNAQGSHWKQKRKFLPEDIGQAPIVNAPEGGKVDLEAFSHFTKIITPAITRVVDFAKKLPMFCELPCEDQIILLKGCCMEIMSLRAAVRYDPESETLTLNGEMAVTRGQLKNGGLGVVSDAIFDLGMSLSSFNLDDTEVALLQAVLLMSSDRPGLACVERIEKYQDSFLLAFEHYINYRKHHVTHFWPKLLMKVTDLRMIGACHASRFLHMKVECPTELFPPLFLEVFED
quantityKind: AC50

1. C=C(c1ccc(C(=O)O)cc1)c1cc2c(cc1C)C(C)(C)CCC2(C)C [Bexarotene, reference compound]    > 92 µM
2. CC1=C(/C=C/C(C)=C/C=C/C(C)=C/C(=O)O)C(C)(C)CCC1 [all trans-Retinoic acid, reference compound]    > 92 µM
3. CSCC[C@H](NC(=O)[C@H](Cc1ccc(OS(=O)(=O)O)cc1)NC(=O)[C@@H](N)CC(=O)O)C(=O)NCC(=O)N[C@@H](Cc1c[nH]c2ccccc12)C(=O)N[C@@H](CCSC)C(=O)N[C@@H](CC(=O)O)C(=O)N[C@@H](Cc1ccccc1)C(N)=O [Sincalide, reference compound]    > 92 µM
4. O=C(O)Cc1cc(I)c(Oc2cc(I)c(O)c(I)c2)c(I)c1 [Tetrac, 3,3ʹ,5,5ʹ-tetraiodothyroacetic acid]    0.227 µM
5. CC1=C(/C=C/C(C)=C/C=C/C(C)=C\C(=O)O)C(C)(C)CCC1 [13-cis Retinoic acid, reference compound]    > 92 µM
6. CC(C)(C)CC(C)(C)c1ccc(O)c(Cc2ccc(Cl)cc2Cl)c1 [Clofoctol, reference compound]    8.93 µM
7. C[C@]12CC[C@H]3C(=CCc4cc(O)ccc43)[C@@H]1CCC2=O [Equilin, reference compound]    > 92 µM
8. O=C(O)CCNC(=O)c1ccccc1 [Betamipron, reference compound]    11.8 µM
9. CC1=C(/C=C/C(C)=C\C=C\C(C)=C\C(=O)O)C(C)(C)CCC1 [9-cis Retinoic acid, reference compound]    > 92 µM
